Please respond with reported cAMP Primary assay EC50 GLP-1R n2 for every item in the list.
# SYSTEM_UNDER_TEST: GLP-1 receptor (GLP-1R) (human, UniProt P43220 24-463)
# EXPERIMENT_DESCRIPTION: cell-based or functional assay
Starred links: 1 amine or outer side, 2 acyl side, 3 side chain; linkers in the order of their positions; H or OH if unused. Non-standard residues stand in square brackets, D forms with d. Groups on a side chain read outwards from the residue. Primed or numbered codes have the meaning given here. No end group written: not given here. *: point of attachment. γGlu = O=C(O)[C@H](CCC(=O)[*:2])N[*:1]; Stearoyl = CCCCCCCCCCCCCCCCCC(=O)*; αMeF = C[C@](N)(Cc1ccccc1)C(=O)O; αMeK = C[C@](N)(CCCCN)C(=O)O; Lauroyl = CCCCCCCCCCCC(=O)*; αMeS = C[C@](N)(CO)C(=O)O; PEG2′ = not defined here; Aib = CC(C)(N)C(=O)O
Numbers only, in pM.

>>> measured("H[Aib]EGSK([PEG2′-PEG2′-γGlu-Stearoyl])TSDV[αMeS]S[αMeF]LEGEAA[αMeK]E[αMeF]IA[αMeF]VV[αMeK]GG-NH2 [SEQ ID NO 123]")
4430
>>> measured("H[Aib]EGS[αMeF]TSDV[αMeS]S[αMeF]LEGEAA[αMeK]K([PEG2′-PEG2′-γGlu-Stearoyl])[αMeF]IA[αMeF]VV[αMeK]GG-NH2 [SEQ ID NO 108]")
3.46
>>> measured("H[Aib]EGS[αMeF]TSDV[αMeS]S[αMeF]LEGEAA[αMeK]E[αMeF]IK([PEG2′-PEG2′-γGlu-Stearoyl])[αMeF]VV[αMeK]GG-NH2 [SEQ ID NO 105]")
14.8

Field: next binder
Entry H[Aib]EGS[αMeF]TSDV[αMeS]S[αMeF]LEGEAAK([PEG2′-Lauroyl])E[αMeF]IA[αMeF]VV[αMeK]GG-NH2 [SEQ ID NO 134] — recorded cAMP Primary assay EC50 GLP-1R n2 = 4.9
